For each of the compounds below, state its IC50.
- System: Saccharomyces cerevisiae lifespan shortening, growth inhibition
- PROTOCOL SUMMARY: yeast lifespan shortening compounds, dose response (AID 849);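 also: yeast growth read as optical density after two days at 30 degrees C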
Calls of active or inactive are those of the source. No rule for the calls is given here.

compound=O=C(OCn1ncc(Br)c(Br)c1=O)c1ccccc1Cl test_system="Saccharomyces cerevisiae lifespan shortening, growth inhibition" result="> 100 µM (inactive)"
compound=C=C(C)COc1ccc(-c2[nH]ncc2-c2ccccc2)c(O)c1 test_system="Saccharomyces cerevisiae lifespan shortening, growth inhibition" result="20.4 µM"
compound=COc1cc(-c2nc3ccc4ccccc4c3c3c2CCC3)ccc1O test_system="Saccharomyces cerevisiae lifespan shortening, growth inhibition" result="> 100 µM (inactive)"
compound=COc1ccccc1N1CCN(Cc2cc(Br)c(O)c3ncccc23)CC1 test_system="Saccharomyces cerevisiae lifespan shortening, growth inhibition" result="15.8 µM"
compound=COc1ccc2cc(C(=O)O)ccc2c1 test_system="Saccharomyces cerevisiae lifespan shortening, growth inhibition" result="13.9 µM"
compound=S=C(NCC1CCCCC1)Nc1ccc(Oc2ccccc2)cc1 test_system="Saccharomyces cerevisiae lifespan shortening, growth inhibition" result="> 100 µM (inactive)"
compound="CCOC(=O)c1c(NC(=O)C(C)Sc2cccc[n+]2[O-])sc2c1CCN(Cc1ccccc1)C2 (stereo not given)" test_system="Saccharomyces cerevisiae lifespan shortening, growth inhibition" result="12.4 µM"
compound=Cc1cccc(CSc2cccc3cccnc23)c1 test_system="Saccharomyces cerevisiae lifespan shortening, growth inhibition" result="33.1 µM"
compound=c1cn2cc(-c3ccc4c(c3)OCO4)nc2s1 test_system="Saccharomyces cerevisiae lifespan shortening, growth inhibition" result="> 100 µM (inactive)"
compound=O=C(/C=C/c1ccccc1Cl)c1ccccc(=O)c1O test_system="Saccharomyces cerevisiae lifespan shortening, growth inhibition" result="9.76 µM"

Required: IC50, one value per compound below.
1. O=C(Nc1nc(-c2ccccn2)cs1)c1ccc(Cl)s1
2. Clc1ccccc1N/N=C/c1ccc2c(c1)OCO2
3. COc1ccc(-c2nncnn2)cc1
4. Cc1ccc(-n2c(C)cc(C(=O)COC(=O)c3ccc[nH]c3=O)c2C)cc1

Marked response:
1: 2.85 µM; 2: 32.5 µM; 3: 10 µM; 4: 18.1 µM

---

- Test system: Saccharomyces cerevisiae lifespan shortening, growth inhibition
- PROTOCOL SUMMARY: yeast lifespan shortening compounds, dose response (AID 849);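 also: yeast growth read as optical density after two days at 30 degrees C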
Active and inactive are the calls of the source. How the calls were made is not given here.
Tick one outcome: active, inactive

molecule=Cc1cc(C)c2c(=O)n(CC(=O)N3CCC(Cc4ccccc4)CC3)sc2n1 class_name=inactive

Exam item: // param item: c1ccc(-c2nc3nonc3nc2-c2ccccc2)cc1 ; yields the recorded call
Marked response: inactive

Exam item: // param item: O=[N+]([O-])c1cccc(/C=N/n2cnnc2)c1O ; yields the recorded call
Marked response: active

Exam item: // param item: O=C1c2ccccc2NC(c2ccc(-c3cccc(Cl)c3)o2)N1O (stereo unspecified) ; yields the recorded call
Marked response: active

---

- Test system: Saccharomyces cerevisiae lifespan shortening, growth inhibition
- PROTOCOL SUMMARY: yeast lifespan shortening compounds, dose response (AID 849);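 also: yeast growth read as optical density after two days at 30 degrees C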
The source made the active and inactive calls. No rule for the calls is given here.
Tick one outcome: yes = active, no = inactive

Reference set, count: 10
compound=Cc1cccc(-c2nnc3sc(-c4ccccc4C)nn23)c1 class_name=no
compound=COc1ccc(C(=O)/C=C/Nc2ccc(C)cn2)cc1OC class_name=no
compound="Cc1ccc(C(C[N+](=O)[O-])n2nc(C)cc2C)cc1 (stereo not given)" class_name=yes
compound=CCCCN=C(NNc1ccc(Br)cc1)C(=O)OCC class_name=yes
compound="CCCn1c(C(C)NC(C)=O)nc2ccccc21 (stereo not given)" class_name=no
compound=CCCCc1oc2ccccc2c1C(=O)c1cc(I)c(OCCN(CC)CC)c(I)c1 class_name=yes
compound=COC(=O)CSC1=NS(=O)(=O)c2ccccc21 class_name=no
compound=CCc1ccc(S(=O)(=O)NCCc2cn3ccsc3n2)s1 class_name=no
compound=Cc1ccccc1N=Cc1cccc(O)c1O class_name=yes
compound=O=c1c2cccc3c2c(nn1CN1CCOCC1)-c1ccccc1-3 class_name=yes

Exam item: // param item: CCOC(=O)CNC(=O)CSc1nnc(-c2ccco2)n1Cc1ccco1 ; yields the recorded call
Marked response: no

Exam item: // param item: CCCCc1ccc(NS(=O)(=O)c2cccs2)cc1 ; yields the recorded call
Marked response: yes

Exam item: // param item: O=C(ONC1=NCCCCC1)c1ccc(Cl)cc1 ; yields the recorded call
Marked response: yes

Exam item: // param item: CC(C)C(=O)NC(c1ccccc1)c1cc([N+](=O)[O-])c2cccnc2c1O (stereo not given) ; yields the recorded call
Marked response: yes

Exam item: // param item: C=CCNC1=C(Cl)C(=O)c2ccccc2C1=O ; yields the recorded call
Marked response: no

Exam item: // param item: Cc1cccc(OCCCCc2c(C)n[nH]c2C)c1C ; yields the recorded call
Marked response: yes

Exam item: // param item: COc1ccc(OCCNC2CCCC2)cc1 ; yields the recorded call
Marked response: no

Exam item: // param item: CCN1/C(=C/c2ccc3ccc(C)cc3[n+]2CC)Sc2ccccc21 ; yields the recorded call
Marked response: yes

Exam item: // param item: CCC(C)NC(=O)CS(=O)Cc1nc(-c2ccccc2C)oc1C (stereo not given) ; yields the recorded call
Marked response: no

Exam item: // param item: Cc1cc(Cl)ccc1N=c1ssnc1Cl ; yields the recorded call
Marked response: no

Exam item: // param item: Cc1c(N=Cc2cc(Br)cc(Br)c2O)cccc1C(=O)O ; yields the recorded call
Marked response: yes

Exam item: // param item: CCOc1cc(C2CC(=O)N3CN(C4CCCCC4)CSC3=C2C#N)ccc1O (stereo not given) ; yields the recorded call
Marked response: no

Exam item: // param item: CCC(=O)NC(c1ccc(C)cc1)c1cc([N+](=O)[O-])c2cccnc2c1O (stereo not given) ; yields the recorded call
Marked response: yes

Exam item: // param item: Cc1cccc(C(=O)CC(=O)c2cc(Cl)ccc2O)c1 ; yields the recorded call
Marked response: yes

Exam item: // param item: CC1(CCc2ccccc2)NC(=S)N(c2ccccc2)N1 (stereo not given) ; yields the recorded call
Marked response: yes
